Test system: SK-MEL-28
Test: NCI tumour cell line growth inhibition, 48 h
Activity calls are given as the source filed them. Rule as the data show it: active = GI50 up to about 1.1 µM and inactive = higher.
Your answer must be one of the following: active, inactive

# example entries with known answers
- Molecule: "CC1OC(OC2C(O)COC(OC3C(C)OC(OC4C(OC(=O)[C@]56CCC(C)(C)C[C@@H]5C5=CCC7[C@@]8(C)C[C@H](O)[C@H](OC9OC(CO)C(O)C(O)C9O)[C@@](C)(CO)[C@@H]8CC[C@@]7(C)[C@]5(C)CC6)OCC(O)C4O)C(O)C3OC3OCC(O)C(O)C3O)C2O)C(O)C(O)C1O (stereo partly drawn)"
  Label: "inactive"
- Molecule: "Cc1cc2c(s1)C(=O)c1sccc1C2=O"
  Label: "active"

Hi team, can someone confirm the assay call for "CC[N+](C)(CC)Cc1ccccc1[N+](=O)[O-]" ? inactive

Lookup "O=C1C=CC(=O)c2c1ccc1c3ccccc3n(-c3ccccc3[N+](=O)[O-])c21" inactive

Next entry: "Sc1nnc(NNc2ccccc2)n1Nc1ccccc1" inactive

How about this molecule: "O=S(=O)(SCCCCSS(=O)(=O)c1ccc(Cl)cc1)c1ccc(Cl)cc1" inactive

Also COC(=O)c1cc(NC2OCC(OC(C)=O)C(OC(C)=O)C2OC(C)=O)nc(SC)c1C(=O)OC (stereo not drawn) ? inactive

----------
Test system: TK-10
Test: NCI tumour cell line growth inhibition, 48 h
Active and inactive are the calls of the source. Cut-off read from the data, not from the text of the source: active = GI50 up to about 1.1 µM and inactive = higher.
Recorded GI50 by entry

- Compound: "CCN(CC)CCNc1ccc2ncn3c4cc(OC)c(OC)c(O)c4c(=O)c1c23"
  GI50: "13.8 µM (inactive)"
- Compound: "O=[N+]([O-])c1ccccc1S(=O)(=O)c1cccc2c1NCCC2"
  GI50: "> 100 µM (inactive)"
- Compound: "Nc1ccc2nc(-c3cccc(C(F)(F)F)c3)cc(O)c2c1"
  GI50: "58.2 µM (inactive)"
- Compound: "CC(C)NC(=O)CN1CCN(C2=C(Cl)C(=O)c3c(O)ccc(O)c3C2=O)CC1"
  GI50: "2.07 µM (inactive)"
- Compound: "CCOC(=O)Cn1c(=O)c2cc(C)cc3c(Cl)nc4c(OC)c(OC)cc1c4c32"
  GI50: "> 100 µM (inactive)"
- Compound: "Cc1cc(O)c(C(C)C)cc1/N=C/c1ccccc1O"
  GI50: "13.1 µM (inactive)"

Now for a further compound.
Notebook: pull reported GI50 for TK-10, entry COc1cc2c(c(OC)c1O)-c1ccc(SC)c(=O)cc1C(NC(C)=O)CC2 (stereo not given) 2.29 µM (inactive)

----------
Tested on: SNB-75
Test: NCI tumour cell line growth inhibition, 48 h
Active and inactive are the calls of the source. No stated cut-off is given here; in the data, active = GI50 up to about 1.1 µM and inactive = higher.
Quantity: GI50

Answered examples (5):
- Compound: "CN1c2ccccc2C(=O)NC12CCN(CCCC(=O)c1ccc(F)cc1)CC2"
  Tested On: "SNB-75"
  GI50: "71.6 µM (inactive)"
- Compound: "COC(=N)C1(C#N)NC(c2ccsc2)C(C#N)(C#N)NC1c1ccsc1 (stereo unspecified)"
  Tested On: "SNB-75"
  GI50: "88.5 µM (inactive)"
- Compound: "Cc1ccc(/N=C2N=C(Cl)/C(=C\\c3ccccc3)N\\2)cc1"
  Tested On: "SNB-75"
  GI50: "> 100 µM (inactive)"
- Compound: "CN(C)CCNC(=O)c1cccc2c1Oc1c(cccc1[N+](=O)[O-])O2"
  Tested On: "SNB-75"
  GI50: "1.24 µM (inactive)"
- Compound: "COC(=O)CCC(C)C1CCC2C3CCC4CC5CCC4(C)C3(O5)C(Br)C(Br)C12C (stereo unspecified)"
  Tested On: "SNB-75"
  GI50: "> 100 µM (inactive)"

So what's the measured GI50 for this one? "COc1ccc(O)c(C(=O)CCC(=O)O)c1" > 100 µM (inactive)

Now give it for "C=CCc1cccc(/C=N\N/C(N)=N/O)c1O" too. 4.43 µM (inactive)

Moving on to "CC(=O)OCCc1cc2ccccc2oc1=O" > 100 µM (inactive)

What do we get for CCOC(=O)CCC(C(=O)OCC)n1nnc2cc(Nc3c(C)[n+]([O-])c4cc(F)c(OCC)cc4[n+]3[O-])ccc21 (stereo unspecified) ? 37.4 µM (inactive)

Try this compound too: OCC(O)C(OC1OC(CO)C(O)C(O)C1O)c1nn(-c2ccccc2)c2nc3cc(Cl)ccc3nc12 (stereo unspecified) > 100 µM (inactive)

Check "Oc1ccc(/C=N/NC(=S)Nc2cccnc2)nc1" too. 19.6 µM (inactive)
